Tested on: NCI-H522 lung
method_notes: NCI tumour cell line growth inhibition, 48 h; in the data active means GI50 below about 0.43 µM; inactive means the rest
Outcomes: 1 (active), -1 (inactive)

{"columns": ["compound", "assigned_class"],
 "data": [
  ["CC(C)=C[C@@H]1C[C@H](C)[C@H]2CC[C@H](C)c3c(O)c(OC4OCC(O)C(O)C4O)c(C)c1c32 (some centres undefined)", -1],
  ["Cc1ccc(/C(=C/C=C(/C#N)C(N)=O)Sc2ncnn2C)cc1", -1],
  ["CCN1C2=C(SC(=S)C1=C1SC(C(=O)OC)=C(C(=O)OC)S1)SC(=Nc1ccc(OC)cc1)C2=O", -1],
  ["CC(C)CNC(=O)c1ccc(NC(=O)N(CC(C)C)C(=O)c2ccc(N)c(OCCCN)c2)c(OCCCN=C(N)N)c1", -1],
  ["CN(C)c1ccc(N=Nc2ccc(Br)cn2)c(O)c1", -1],
  ["CCN1CCN(Cc2ccc(NC(=O)c3nc4ccc5[nH]ncc5c4c4c3CCCC4)cc2C(F)(F)F)CC1", -1],
  ["O=C(c1cccs1)c1c(C(F)(F)F)n([O-])c2ccc(Cl)cc2[n+]1=O", 1],
  ["COC(=O)[C@@H](C)C[C@H](Cc1ccccc1)NC(=O)c1nc([C@@H](C[C@H](C(C)C)N(C)C(=O)[C@@H](NC(=O)[C@H]2CCCCN2C)C(C)C)OC(C)=O)sc1C(C)C", 1],
  ["Clc1ccc(-c2nc(-c3ccccc3)cn3ccnc23)cc1", -1]
]}

----------
System: HOP-92 NSCLC
method_notes: NCI tumour cell line growth inhibition, 48 h
assay_metric: log10 of TGI (log10 of the value in µM)

{"columns": ["molecule", "reported"],
 "data": [
  ["CC(=O)O[C@H]1[C@@H]2OC(=O)C3(CC3)C2C[C@H]2O[C@]2(C)CC/C=C(\\C)CCC[C@@H]1C (some centres undefined)", 1.80],
  ["Cc1cc(NS(=O)(=O)c2ccc(NC(=O)c3ccc(Cl)c4c(Nc5ccc(S(N)(=O)=O)cc5)c5ccccc5nc34)cc2)no1", 1.59],
  ["C/C(=N\\NC(=S)N1CCN(c2ccccn2)CC1)c1cccc(C)n1", 1.16],
  ["c1ccc(-c2cccc(-c3ccccn3)n2)nc1", 1.30],
  ["N#CC(C#N)N=Nc1ccc(-c2nc3ccccc3s2)cc1", 0.67],
  ["COc1ccc(-c2cn(-c3cccc(C(=O)/C=C/c4cc(OC)c(OC)c(OC)c4)c3)c(=O)[nH]2)cc1", 1.83],
  ["COC(=O)[C@]12CC[C@@H](C(=O)/C=C/c3cccnc3)[C@@H]1[C@H]1CC[C@@H]3[C@@]4(C)C/C(=C/c5cccnc5)C(=O)C(C)(C)[C@@H]4CC[C@@]3(C)[C@]1(C)CC2", 0.24],
  ["Brc1cccc(Nc2ncnc3sc4c(c23)CCC2(C4)OCCO2)c1", 1.69]
]}

----------
Test system: RXF-631 renal
method_notes: NCI tumour cell line growth inhibition, 48 h

{"columns": ["compound", "system_name", "operator_symbol", "TGI, µM"],
 "data": [
  ["COc1cc(Nc2cnc3ccc(N)cc3n2)cc(OC)c1OC", "RXF-631 renal", ">", 100],
  ["Cn1c2c(c3ccccc31)CCN(CCCN1CCN(c3cccc(Cl)c3)CC1)C2=O", "RXF-631 renal", "=", 90.7],
  ["Cc1cc(C)nc(NS(=O)(=O)c2ccc(Nc3c4ccccc4nc4c(C(=O)N5CCN(CCO)CC5)ccc(Cl)c34)cc2)n1", "RXF-631 renal", ">", 100],
  ["COc1cc2c3c(c1OC)-c1ccccc1C(C(O)c1ccccc1)C3N(C)CC2 (stereo not given)", "RXF-631 renal", "=", 65.8],
  ["COc1ccc(O)c2c(=O)ccccc12", "RXF-631 renal", ">", 100]
]}
